Experimental protocol: E. coli acrAB mutant growth effects, primary screen, E. coli filamentation inducers, strain DRC39, OD650, 24 h (AID 1178);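 note: growth measured as culture turbidity by optical density at 650 nm; test concentration not given here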
Experimental conditions: higher = more signal, called active from +8 up or from −8 down
I'd appreciate it if you could supply z-score values for the items below.
A bare number is all that is needed in reply.

Exercise: Look up z-score: CCCC[C@H]1OB(O)C[C@H]2C1=C(COC)C[C@H]1C(=O)N(C)C(=O)[C@H]12
Solution: -0.748

Exercise: Look up z-score: Cc1ccccc1C(O)C1C=CC2C(=O)N(c3ccccc3)C(=O)C2N1Nc1ccc(C(C)C)cc1 (stereo not drawn)
Solution: -0.765

Exercise: Look up z-score: O=C1OCCC/C=C\[C@H]2OC34C=CCN(Cc5ccccc5)C(=O)[C@H]3N(CCCO)C(=O)[C@@H]4C12 (stereo partly drawn)
Solution: 0.625

Exercise: Look up z-score: C=CCNC(=O)[C@@H]1[C@H]2C(=O)O[C@H](c3ccccc3)[C@H](c3ccccc3)N2[C@H](c2ccc(O)cc2)[C@@]12C(=O)Nc1ccc(C#CCNC(N)=O)cc12
Solution: -0.0851

Exercise: Look up z-score: C=CCC(OC(C)=O)[C@@H]1[C@@H](N(Cc2cccc3ccccc23)C(=O)c2ccc(-c3ccccc3)cc2)c2cc(OCCCO)ccc2N1C(=O)c1ccc2ccccc2c1 (stereo partly drawn)
Solution: 0.0986

Exercise: Look up z-score: [N-]=[N+]=Nc1ccccc1[C@H]1OC(c2ccc(OCCCO)cc2)=N[C@@]1(CCS(=O)(=O)c1ccccc1)C(=O)NCC(O)CO (stereo partly drawn)
Solution: -0.117

Exercise: Look up z-score: CCCC[C@@H]1C[C@H]1[C@@H](NC(=O)C(C)(C)C)c1ccc(C(F)(F)F)cc1
Solution: -0.483

Exercise: Look up z-score: C=CCOC(=O)[C@H]1[C@@H]2C(=O)O[C@@H](c3ccccc3)[C@@H](c3ccccc3)N2[C@@H](c2ccc(OCCOC(=O)[C@@H]3C[C@@H]4C(=O)N[C@@H](CCCCNC(C)=O)C(=O)N4[C@@H]3c3ccc(O)cc3)cc2)[C@]12C(=O)Nc1ccccc12
Solution: -0.605

Exercise: Look up z-score: CC1CC/C=C\[C@H]2OC34C=CCN(Cc5ccccc5)C(=O)[C@H]3N(CCCO)C(=O)[C@@H]4C2C(=O)O1 (stereo partly drawn)
Solution: 1.02

Exercise: Look up z-score: COC(=O)[C@@]1(Cc2ccc(F)cc2)[C@H]2c3cc(C(=O)N(C)C)n(Cc4cc(F)c(F)c(F)c4)c3C[C@H]2CN1C(=O)c1ccccc1
Solution: -0.194

Exercise: Look up z-score: COc1ccc(CCNC(=O)[C@@]2(Sc3ccc(C)cc3)CC(=O)N(C(C)C)[C@@H]2c2ccc(CO)cc2I)cc1
Solution: -0.246

Exercise: Look up z-score: CC(C)C(=C=CC[C@@H](O)c1ccc(OCCO)cc1)C[C@@H](O)COCc1ccccc1
Solution: 1.38

Exercise: Look up z-score: COCCOC(=O)N1C(=O)[C@@]2(c3cc(C#CCNC(N)=O)ccc31)[C@H](C(=O)N1CCN(c3ncccn3)CC1)[C@H]1C(=O)O[C@H](c3ccccc3)[C@H](c3ccccc3)N1[C@@H]2c1ccc(OCCO)cc1
Solution: 0.142

Data origin, for the record: PubChem BioAssay
